- System: CEM cells HIV-1 protection, formazan growth assay
- assay remarks: NCI AIDS Antiviral Assay;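 active = compounds giving half or more protection of infected cells from virus-caused growth loss, again on retest; inactive = the rest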
- Method: The ability of compounds to protect human CEM cells from HIV-1 infection is measured as a screen for new compounds capable of inhibiting the HIV virus. Five concentrations of drug were tested on uninfected and infected cells and cell growth was measured using a soluble formazan assay. […] Compounds that provided at least 50% protection were retested. Compounds that provided at least 50% protection on retest were listed as moderately active. […]
Hi there, use one of these labels in your reply, thanks! yes (active), no (inactive)

The examples below pair each entry with its known result.
{"columns": ["compound", "tested target", "class name"],
 "data": [
  ["Cc1oc2cc(O)cc(O)c2c(=O)c1C", "CEM cells HIV-1 protection, formazan growth assay", "no"],
  ["COc1cc2cc(C(=O)N3CC(CCl)c4ccc([N+](C)(C)Cc5ccccc5[N+](=O)[O-])cc43)[nH]c2c(OC)c1OC (stereo unspecified)", "CEM cells HIV-1 protection, formazan growth assay", "no"],
  ["CCOC(=O)/C(=C\\c1ccc([N+](=O)[O-])cc1)C(C)=O", "CEM cells HIV-1 protection, formazan growth assay", "no"],
  ["COC(=O)C1=COC2OC3/C(=C\\c4ccc(O)c(OC)c4)C(=O)OC34C=CC1C24 (stereo unspecified)", "CEM cells HIV-1 protection, formazan growth assay", "no"],
  ["O=C(NCCc1c(-c2ccccc2)[nH]c2ccccc12)C1CCCCC1", "CEM cells HIV-1 protection, formazan growth assay", "no"],
  ["C=CCNC(=S)NC=C(C(N)=O)C(N)=O", "CEM cells HIV-1 protection, formazan growth assay", "no"]
]}

stdin: What did this assay record as the result for Nc1ccc(S(=O)(=O)Cc2ccc(C(=O)O)cc2)cc1 ?
stdout: no

stdin: Hey, what did the test say about CN(C)C1C(=O)C(C(=O)NCNC(C=O)C(O)C(O)C(O)CO)=C(O)C2(O)C(=O)C3=C(O)c4c(O)cccc4C(C)(O)C3CC12 (stereo unspecified) ?
stdout: no

stdin: # outcome recorded in this test, key = CC(=O)c1cccc(NC(=O)/C(=N\NC(C)(C)C)c2c(O)c3ccccc3oc2=O)c1
stdout: no
